experimental-protocol: Determination of inhibitor concentration in plasma after oral dosing
Type: in vivo, Sprague Dawley rats
conditions: Sprague-Dawley, rat plasma, dose 50 mg/kg, vehicle B, dosed as the benzyl ester prodrug
property: Cmax

Determine its reported Cmax: CNC(=O)[C@@H](NC(=O)[C@@H](CC(=O)O)n1ccc(-c2ccc(-c3ccncc3)cc2)c1)C(C)(C)C 300 ng/mL

###

system-tested: human collagenase-3 (Coll3) (Homo sapiens)
Structures can show the parent of a compound that is named as a salt.
Friendly reminder: Ki below 1 nM is rule met, at or above is rule not met.

Below, 4 molecules whose answers are already recorded.
Report whether reported Ki is lower than 1 nM (strictly) for CNC(=O)[C@@H](NC(=O)C(CC(=O)O)n1cnc(-c2ccc(-c3ccccc3)cc2)c1)C(C)(C)C (mixture of isomers) rule not met

Report whether reported Ki is lower than 1 nM (strictly) for CNC(=O)[C@@H](NC(=O)[C@@H](CC(=O)O)n1ccc(-c2ccncc2)c1)C(C)(C)C rule not met

Report whether reported Ki is lower than 1 nM (strictly) for CC(C)C[C@H](NC(=O)[C@@H](CC(=O)O)n1ccc(-c2ccc(-c3ccncc3)cc2)c1)c1ncc[nH]1.O=CO [Example 7(c), Formate Salt] rule not met

Report whether reported Ki is lower than 1 nM (strictly) for CC(C)(C)[C@H](NC(=O)[C@@H](CC(=O)O)n1ccc(-c2ccc(-c3ccc(C#N)cc3)cc2)c1)C(=O)Nc1ccncc1 [Example 5(d), Formate Salt] rule met

Continue with the next molecule.
Report whether reported Ki is lower than 1 nM (strictly) for O=C(O)C(F)(F)F.O=C(O)C[C@H](C(=O)N[C@H](CO)Cc1c[nH]cn1)n1ccc(-c2ccc(-c3ccccc3)cc2)c1 [Example 1(g), Trifluoroacetate Salt] rule not met
